Measured values drawn from the Immune Epitope Database (IEDB) for this set.

Target: HLA-B*58:01
Assay: IEDB peptide-MHC binding, purified MHC/direct/fluorescence; filed as Kd, often an IC50 or EC50 that approximates it; bounds were set here for any values at or beyond the usual limits of such assays
Conditions: source organism: Aurantimonas manganoxydans
readout_kind: pKd
Just the number, please; pKd means minus log10 of the concentration in mol/L.

Prompt: Any idea what pKd came out for WALDVPMYF on HLA-B*58:01?
Completion: 8.44

* * *

Molecular target: HLA-B*27:03
Assay: IEDB peptide-MHC binding, purified MHC/competitive/fluorescence; filed as Kd, often an IC50 or EC50 that approximates it; bounds were set here for any values at or beyond the usual limits of such assays
Conditions: source organism: Rickettsia typhi str. Wilmington
pKd: −log10 of the molar value.
readout_kind: pKd

Prompt: Sample QLEVRSTEV — what was its pKd?
Completion: ≤ 4.70

* * *

Biological target: HLA-B*08:01
Assay: IEDB peptide-MHC binding, purified MHC/direct/fluorescence; filed as Kd, often an IC50 or EC50 that approximates it; bounds were set here for any values at or beyond the usual limits of such assays
Conditions: source organism: Vibrio vulnificus YJ016
pKd: −log10 of the molar value.
readout_kind: pKd

Prompt: I'm curious: which pKd was measured for VVYKEAKIK tested on HLA-B*08:01?
Completion: ≤ 4.70

* * *

Molecular target: HLA-A*01:01
Experiment: IEDB peptide-MHC binding, purified MHC/competitive/radioactivity; filed as Kd, often an IC50 or EC50 that approximates it; bounds were set here for any values at or beyond the usual limits of such assays
Settings: source organism: Lymphocytic choriomeningitis virus (strain Armstrong)
readout_kind: Kd

Prompt: Find Kd (HLA-A*01:01) for the entry LQFGFGWFSY
Completion: ≥ 70.4 µM

* * *

Molecular target: HLA-B*15:01
Experiment: IEDB peptide-MHC binding, purified MHC/competitive/fluorescence; filed as Kd, often an IC50 or EC50 that approximates it; bounds were set here for any values at or beyond the usual limits of such assays
Details: source organism: Human immunodeficiency virus 1
readout_kind: Kd (µM)
Quick note: give the figure in µM, leave out the unit.

Prompt: // returns reported Kd for input TQGYFPDWQNY
Completion: 0.0846

* * *

Molecular target: HLA-B*58:01
Test: IEDB peptide-MHC binding, purified MHC/competitive/radioactivity; filed as Kd, often an IC50 or EC50 that approximates it; bounds were set here for any values at or beyond the usual limits of such assays
Details: source organism: Dengue virus 1 Brazil/97-11/1997
readout_kind: pKd
// pKd: -log10(molar conc.)

Prompt: Looking for the measured pKd of VASVELPNSL , can you help?
Completion: 6.83

Prompt: Subsequent entry: KASQEGPLPE
Completion: 6.17

Prompt: Moving on to WMASVEPHW
Completion: 7.88

* * *

Target: HLA-B*44:02
Assay: IEDB peptide-MHC binding, purified MHC/competitive/radioactivity; filed as Kd, often an IC50 or EC50 that approximates it; bounds were set here for any values at or beyond the usual limits of such assays
Conditions: source organism: Dengue virus 2 Jamaica/1409/1983
readout_kind: Kd (nM)
Numeric answer only, unit nM assumed.

Prompt: Dear colleague, I am looking for the recorded Kd of the following sequence: GEWKEGEEV
Completion: 16300

Prompt: Same thing, different sequence: TEEIAVQNW
Completion: 15.4

Prompt: Query LENDEDCAHW next
Completion: 103
